Test system: Zika virus NS2B-NS3 protease (unlinked)
Assay: Optimization of GU AMC qHTS for Zika virus inhibitors: Unlinked NS2B-NS3 protease assay (AID 1347151); further: nearly all actives have a fitted effect of over 80% in size
Conditions: recombinant ZIKV NS2B-NS3 protease, fluorogenic AMC substrate; series mostly up to 52.5 µM
Results filed as inconclusive are left out. Active and inactive are the calls of the source. The call rests on the fitted dose curve; in most records, active means well fitted inhibition curve with a large enough effect; inconclusive means small, poorly fitted or top-dose-only effect; inactive means no such curve, though single readings can be large or run the other way.
Outcome (select one): t for active, f for inactive

CN1CCC[C@@H]1Cc1c[nH]c2ccc(CCS(=O)(=O)c3ccccc3)cc12 ... f
COc1ccc(Cl)cc1C(=O)NCCc1ccc(S(=O)(=O)NC(=O)NC2CCCCC2)cc1 ... f
COCCOC(=O)C1=C(C)NC(C)=C(C(=O)OC/C=C/c2ccccc2)C1c1cccc([N+](=O)[O-])c1 (stereo not drawn) ... f

### Prompt For CCN(CC)CCCC(C)Nc1c2ccc(Cl)cc2nc2ccc(OC)cc12 (stereo not drawn) , which call appears in the assay record?
### Response t

### Prompt Further, for CCN(CC)CCOC(=O)C1(C2CCCCC2)CCCCC1 ?
### Response f

### Prompt How about this molecule: CC(CN1c2ccccc2Sc2ccccc21)N(C)C (stereo not drawn)
### Response f

### Prompt // query: Nc1cc(=O)[nH]c(N)n1
### Response f

### Prompt What do you have for CC(C)(C)c1onc(OCP(=O)(O)O)c1CC(N)C(=O)O (stereo not drawn) ?
### Response f

---

Test system: ATS189
Test: qHTS profiling for inhibitors of Plasmodium falciparum proliferation (AID 504749); further: nearly all actives have a fitted effect of over 60% in size; further: potency means the concentration at half of the fitted maximal effect
Conditions: P. falciparum in erythrocytes, SYBR Green DNA, 72 h; series mostly up to 28.7 µM
Records with an inconclusive call do not appear. Calls of active or inactive are those of the source. Calls come from the whole dose curve; as a rule, active = well fitted inhibition curve with a large enough effect; inconclusive = small, poorly fitted or top-dose-only effect; inactive = flat fitted curve, though single readings scatter.
OBSERVATION TYPE: Potency

Completed entries (count: 5):
O=C1c2c(O)cccc2Cc2cccc(O)c21 ... inactive
CCOC(=O)[C@H](CCc1ccccc1)N[C@@H](C)C(=O)N1C(=O)N(C)C[C@H]1C(=O)O ... inactive
O=C1O[C@H]([C@@H](O)CO)C(O)=C1O ... inactive
Cc1cc(CC(=O)O)n(C)c1C(=O)c1ccc(Cl)cc1 ... inactive
COc1cc(C)c(Cc2cnc(N)nc2N)cc1OC ... inactive

### Prompt Potency for COc1ccccc1O ?
### Response inactive

---

Assay: qHTS of pediatric cancer cell lines to identify multiple opportunities for drug repurposing: Primary screen for BT-12 cells (AID 1347101);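 further: plate controls were DMSO for no effect and bortezomib positive control for full effect; nearly all actives have a fitted effect of over 25% in size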
Conditions: BT-12 viability, CellTiter-Glo luminescence, 48 h; series mostly up to 57.3 µM
Records with an inconclusive call do not appear. Active and inactive are the calls of the source. Calls come from the whole dose curve; as a rule, active = well fitted cell-killing curve with a large enough effect; inconclusive = small, poorly fitted or top-dose-only effect; inactive = flat fitted curve, though single readings scatter.
Use one of these outcomes when replying: active, inactive

### Prompt For CN1[C@@H]2CC(OC(=O)[C@H](CO)c3ccccc3)C[C@H]1[C@@H]1O[C@@H]12 (stereo partly drawn) , what call appears in the results of this test?
### Response inactive

### Prompt Proceed to CC1=C(C/C=C(\C)CCC[C@H](C)CCC[C@H](C)CCCC(C)C)C(=O)c2ccccc2C1=O
### Response inactive

### Prompt Another molecule to check: O=C(O)Cc1sc(-c2ccccc2)nc1-c1ccc(Cl)cc1
### Response inactive

### Prompt Same thing, different molecule: CC(C)(C)C(=O)C(Oc1ccc(Cl)cc1)n1ccnc1 (stereo not drawn)
### Response inactive

---

Tested on: CP211
Test: qHTS profiling for inhibitors of Plasmodium falciparum proliferation (AID 504749); further: nearly all actives have a fitted effect of over 60% in size
Settings: P. falciparum in erythrocytes, SYBR Green DNA, 72 h; series mostly up to 28.7 µM
Results filed as inconclusive are left out. Activity calls are given as the source filed them. The call rests on the fitted dose curve; in most records, active means well fitted inhibition curve with a large enough effect; inconclusive means small, poorly fitted or top-dose-only effect; inactive means flat fitted curve, though single readings scatter.
Thanks in advance; please answer with one of these: 1 for active, -1 for inactive

### Prompt Recorded test outcome, item CC1=C(CC(=O)O)c2cc(F)ccc2/C1=C\c1ccc(S(C)=O)cc1 (centres undefined)
### Response -1

### Prompt Do the same for CC1(C)CO[C@@H](CC(=O)O)CN1 please
### Response -1

### Prompt Likewise for Cc1cc2c(cc1S(N)(=O)=O)S(=O)(=O)CCC2 ?
### Response -1

### Prompt Follow-up item: O=c1cc[nH]c(=O)[nH]1
### Response -1

### Prompt Item: [Cl][In]([Cl])[Cl]
### Response -1

### Prompt Query CN(C)CCN(Cc1ccccc1)c1ccccn1 next
### Response -1

### Prompt Would you kindly repeat that for CCCCC(CC)COC(=O)c1ccccc1O (centres undefined) ?
### Response -1

### Prompt Cc1cc(N)c2ccccc2[n+]1CCCCCCCCCC[n+]1c(C)cc(N)c2ccccc21 , same question.
### Response 1

### Prompt Can you handle CC12CCC(CC1)C(C)(C)O2 next?
### Response -1

### Prompt Entry to check: CC(=O)CCC(=O)O
### Response -1

### Prompt Same read-out for O=c1cc[nH]c(=S)[nH]1 ?
### Response -1

### Prompt Now give it for O=S(=O)(O)c1cc(I)c(O)c2ncccc12 too.
### Response -1

### Prompt Cn1c(=O)c2c(ncn2CC2OCCO2)n(C)c1=O ?
### Response -1

### Prompt Do the same for COc1ccc(Cl)cc1C(=O)NCCc1ccc(S(=O)(=O)NC(=O)NC2CCCCC2)cc1 please
### Response -1
